- target: Leucine aminopeptidase (Plasmodium falciparum (isolate 3D7))
- procedure-details: P. falciparum M17LAP inhibitors, primary screen, biochemical, fluorogenic H-Leu-NHMec substrate, 1536-well (AID 1619);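 also: plate controls were full reaction with DMSO carrier for no effect and no enzyme background for full effect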
- particulars: recombinant M17LAP, H-Leu-NHMec fluorogenic kinetic assay; at 30 µM; hits give high values
About 830 (0.38%) of roughly 220,000 compounds were called active. These entries were drawn from the full list. Measured potencies and affinities stand elsewhere.
Recorded inhibition, one value per entry.

- smiles-structure: "O=C(/C=C/c1ccco1)Nc1ccccc1C(=O)O"
  readout-label: "inhibition"
  result: "27.5% (inactive)"
- smiles-structure: "CCOC(=O)c1c(CSCc2ccccc2)oc2ccc(O)c(CN(C)C)c12"
  readout-label: "inhibition"
  result: "-2.1% (inactive)"

State the recorded inhibition for this entry: "CCOC(=O)C1=C(C)N=C2SCCC(=O)N2[C@@H]1c1cccs1" 3.63% (inactive)

* * *

- target: Leucine aminopeptidase (Plasmodium falciparum (isolate 3D7)) (UniProt Q8IL11)
- Sequence (Q8IL11 whole entry, looked up): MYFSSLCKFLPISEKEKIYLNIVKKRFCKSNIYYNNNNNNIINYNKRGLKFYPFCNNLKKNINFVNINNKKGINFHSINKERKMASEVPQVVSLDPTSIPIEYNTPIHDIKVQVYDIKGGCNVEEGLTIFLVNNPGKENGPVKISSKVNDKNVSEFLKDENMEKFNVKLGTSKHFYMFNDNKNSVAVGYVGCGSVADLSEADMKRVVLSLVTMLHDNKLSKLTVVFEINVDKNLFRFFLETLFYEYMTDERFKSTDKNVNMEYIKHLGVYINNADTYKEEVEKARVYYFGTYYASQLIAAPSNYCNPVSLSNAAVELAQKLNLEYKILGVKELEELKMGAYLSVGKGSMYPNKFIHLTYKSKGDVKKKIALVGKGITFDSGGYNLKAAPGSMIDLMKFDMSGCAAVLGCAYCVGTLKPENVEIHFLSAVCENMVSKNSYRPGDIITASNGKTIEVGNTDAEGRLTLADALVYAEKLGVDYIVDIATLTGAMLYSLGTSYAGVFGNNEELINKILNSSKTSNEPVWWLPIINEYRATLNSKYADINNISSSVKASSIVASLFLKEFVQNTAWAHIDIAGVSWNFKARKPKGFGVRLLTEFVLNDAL
- procedure-details: P. falciparum M17LAP inhibitors, primary screen, biochemical, fluorogenic H-Leu-NHMec substrate, 1536-well (AID 1619);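 also: plate controls were full reaction with DMSO carrier for no effect and no enzyme background for full effect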
- particulars: recombinant M17LAP, H-Leu-NHMec fluorogenic kinetic assay; at 30 µM; hits give high values
In all, about 220,000 compounds went through this assay and about 830 (0.38%) were called active. Not all results are given here. Results with a measured potency or affinity are listed apart.
readout-label: inhibition (%)
Report only the number, with the unit % understood.

- compound: "N#Cc1c(NC(=O)CSc2ccccn2)oc(-c2ccccc2)c1-c1ccccc1"
  unit: "%"
  inhibition: 3.85
- compound: "CC1(C)CC2CC(C)(CN2Cc2c(O)ccc3ccccc23)C1 (configuration not stated)"
  unit: "%"
  inhibition: -1.68
- compound: "Cc1nn(Cc2c(Cl)cccc2Cl)c(C)c1NC(=O)CCCn1nc(C)c([N+](=O)[O-])c1C"
  unit: "%"
  inhibition: -7.34
- compound: "Nn1c(SCc2ccccc2F)nnc1-c1ccncc1"
  unit: "%"
  inhibition: 1.35
- compound: "COc1cccc(F)c1C(C[N+](=O)[O-])c1c(N)n(C)c(=O)n(C)c1=O (configuration not stated)"
  unit: "%"
  inhibition: 2.97
- compound: "Cc1ccc(S(=O)(=O)NCCCCCC(=O)Nc2ccccc2)cc1"
  unit: "%"
  inhibition: 3.08

Request the reported inhibition associated with "O=c1cc2c(=O)oc3cc(O)c(O)oc3c2c(O)c1O" 33

* * *

The following molecules are listed with their measured inhibition values.
- target: Leucine aminopeptidase (Plasmodium falciparum (isolate 3D7)) (UniProt Q8IL11)
- procedure-details: P. falciparum M17LAP inhibitors, primary screen, biochemical, fluorogenic H-Leu-NHMec substrate, 1536-well (AID 1619);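 also: plate controls were full reaction with DMSO carrier for no effect and no enzyme background for full effect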
- particulars: recombinant M17LAP, H-Leu-NHMec fluorogenic kinetic assay; at 30 µM; hits give high values
The campaign covered roughly 220,000 compounds. About 830 (0.38%) were called active. Not all results are given here. Potency and affinity values are given separately.
Give just the numeric value; % need not be written.

- molecule: "Nc1nc2nc(-c3ccc(OCc4ccccc4)cc3)cc(C(F)(F)F)n2n1"
  inhibition / %: -1.91

So what inhibition did "CC(C)[C@H](NC(=O)c1ccccc1)C(=O)OCC(=O)N1CCc2ccccc2C1" get with Leucine aminopeptidase (Plasmodium falciparum (isolate 3D7)) (UniProt Q8IL11)? 10.5

State its inhibition on Leucine aminopeptidase (Plasmodium falciparum (isolate 3D7)) (UniProt Q8IL11): COc1ccc(CCNC(=O)C2CC(=O)N(CCc3ccc(C)cc3)C2)cc1OC (stereo not given) 5.63

Any idea what inhibition came out for "Cn1c(N)c(C(=O)COc2ccc(C#N)cc2)c(=O)n(C)c1=O" on Leucine aminopeptidase (Plasmodium falciparum (isolate 3D7)) (UniProt Q8IL11)? 7.75

Query the reported inhibition for Leucine aminopeptidase (Plasmodium falciparum (isolate 3D7)) (UniProt Q8IL11); item: O=C1CC(=O)C(n2cncn2)C(c2ccc(Cl)cc2)C1 (stereo not given) 41.7

Values from PubChem BioAssay AID1619
